Attribution: the supplement of paper PMC13380429

# System: Caco-2
# measurement.description: cell viability relative to DMSO; higher = less toxic
# condition.notes: 72 h; 10000 nM
metric.name: cell viability (%)
Provide the reading as a plain figure in %.

These recorded examples may help you get a feel for the data.
[
  {
    "compound": "COc1ccc(C2=N[C@@H](c3ccc(Cl)cc3)[C@@H](c3ccc(Cl)cc3)N2C(=O)N2CCNC(=O)C2)c(OC(C)C)c1",
    "assayed.system": "Caco-2",
    "u": "%",
    "observed.value": 89.1
  },
  {
    "compound": "O=C(O)c1ccc(N2N=C(Cc3ccccc3)/C(=C\\c3ccc(-c4ccccc4F)o3)C2=O)cc1",
    "assayed.system": "Caco-2",
    "u": "%",
    "observed.value": 87.5
  },
  {
    "compound": "NC(=O)CN1CC(c2ccccc2)CC1=O (stereo unspecified)",
    "assayed.system": "Caco-2",
    "u": "%",
    "observed.value": 91.8
  },
  {
    "compound": "COc1cc(OC)c(NC(=O)Nc2cc(C)on2)cc1Cl",
    "assayed.system": "Caco-2",
    "u": "%",
    "observed.value": 90
  },
  {
    "compound": "O=C(O)CCC/C=C\\C[C@@H]1[C@@H](/C=C/[C@@H](O)COc2cccc(Cl)c2)[C@H](O)C[C@@H]1O (racemic) [cloprostenol-(+/-)]",
    "assayed.system": "Caco-2",
    "u": "%",
    "observed.value": 92.3
  }
]

Consider the additional compound presented here.
Requested field: cell viability. Item: `COc1cc(NC(=O)c2cccc(-n3cc(NC(=O)Nc4cccc(C)c4)cn3)c2)cc(OC)c1OC`
87.7
